subject-of-test: Type-2 angiotensin II receptor (Rattus norvegicus)
Sequence (P35351 whole entry): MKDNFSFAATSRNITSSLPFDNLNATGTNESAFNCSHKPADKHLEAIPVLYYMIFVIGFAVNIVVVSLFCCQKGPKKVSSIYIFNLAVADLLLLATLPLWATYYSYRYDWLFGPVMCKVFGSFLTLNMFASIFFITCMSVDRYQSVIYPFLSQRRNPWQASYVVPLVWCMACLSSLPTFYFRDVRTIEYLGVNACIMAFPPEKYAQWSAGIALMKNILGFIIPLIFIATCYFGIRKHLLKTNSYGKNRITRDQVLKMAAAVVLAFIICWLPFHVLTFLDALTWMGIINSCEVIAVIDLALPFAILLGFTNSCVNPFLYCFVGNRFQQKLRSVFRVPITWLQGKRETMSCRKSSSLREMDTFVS
test-protocol: Binding affinity towards angiotensin II AT2 receptor subtype was determined using rat isolated adrenal […] microsomes
pIC50: −log10 of the molar value.
experimental-readout: pIC50

> print(dat)
                               input.smiles  experimental.readout  assay.result
1  COc1ccc(Cn2cnc3c2C[C@@H](C(=O)O)N(C(=O)C(c2ccccc2)c2ccccc2)C3)cc1C                 pIC50          8.00

* * *

subject-of-test: Angiotensin II receptor (AT-1) type-1 (Rattus norvegicus, UniProt P29089+P25095)
test-protocol: Binding affinity towards Angiotensin II receptor, type 1 in rat isolated adrenal cortical microsomes
Set-up: species or system Microsome
As shown below, each of these molecules has a reported IC50 value.
experimental-readout: IC50 (µM)

> print(dat)
                                   molecule  unit.string  limit.sign  assay.result
1  COC(=O)C1Cc2c(Cc3ccc(OC)cc3)cccc2CN1C(=O)C(c1ccccc1)c1ccccc1 (configuration not stated)           µM           >            10
2  O=C(O)C1Cc2c(Cc3ccccc3)cccc2CN1C(=O)C(c1ccccc1)c1ccccc1 (stereo in doubt; 21)           µM           =            10
3  COc1ccc(-c2cccc3c2CC(C(=O)O)N(C(=O)C(c2ccccc2)c2ccccc2)C3)cc1 (configuration not stated)           µM           =            10
4  COc1ccc(-c2cccc3c2CC(C(=O)O)N(C(=O)C(c2ccccc2)c2ccccc2)C3)cc1C (configuration not stated)           µM           >            10
5  COc1ccc(Cc2cccc3c2CC(C(=O)O)N(C(=O)C(c2ccccc2)c2ccccc2)C3)cc1 (configuration not stated)           µM           =             7
6  CCCCCc1cccc2c1CC(C(=O)O)N(C(=O)C(c1ccccc1)c1ccccc1)C2 (configuration not stated)           µM           >            10
7  O=C(O)C1Cc2cc(-c3ccccc3)ccc2CN1C(=O)C(c1ccccc1)c1ccccc1 (configuration not stated)           µM           >            10

* * *

subject-of-test: Angiotensin II receptor (AT-1) type-1 (Rattus norvegicus, UniProt P29089+P25095)
test-protocol: Binding affinity towards Angiotensin II receptor, type 1 in rat isolated adrenal cortical microsomes
Set-up: species or system Microsome
As shown below, each of these compounds has a reported IC50 value.
experimental-readout: IC50

> print(dat)
                                   compound                           subject.of.test  experimental.readout  assay.result
1  O=C(O)C1Cc2cc(O)ccc2CN1C(=O)C(c1ccccc1)c1ccccc1 (centres undefined)  Angiotensin II receptor (AT-1) type-1 (Rattus norvegicus, UniProt P29089+P25095)                  IC50       > 10 µM
2  COc1ccc(Cc2cccc3c2CC(C(=O)O)N(C(=O)C(c2ccccc2)c2ccccc2)C3)cc1C (centres undefined)  Angiotensin II receptor (AT-1) type-1 (Rattus norvegicus, UniProt P29089+P25095)                  IC50          5 µM
3  CN(C(=O)N1Cc2ccc(Oc3ccccc3)cc2CC1C(=O)O)c1ccccc1 (centres undefined)  Angiotensin II receptor (AT-1) type-1 (Rattus norvegicus, UniProt P29089+P25095)                  IC50       > 10 µM
4  COc1ccc(Cc2cccc3c2CC(C(=O)O)N(C(=O)N(C)c2ccccc2)C3)cc1 (centres undefined)  Angiotensin II receptor (AT-1) type-1 (Rattus norvegicus, UniProt P29089+P25095)                  IC50       > 10 µM
5  O=C(O)C1Cc2c(cccc2-c2ccccc2)CN1C(=O)C(c1ccccc1)c1ccccc1 (centres undefined)  Angiotensin II receptor (AT-1) type-1 (Rattus norvegicus, UniProt P29089+P25095)                  IC50       > 10 µM
6  O=C(O)C1Cc2ccccc2CN1C(=O)C(c1ccccc1)c1ccccc1 (centres undefined)  Angiotensin II receptor (AT-1) type-1 (Rattus norvegicus, UniProt P29089+P25095)                  IC50       > 30 µM
7  COC(=O)C1Cc2c(cccc2-c2ccc(OC)cc2)CN1C(=O)C(c1ccccc1)c1ccccc1 (centres undefined)  Angiotensin II receptor (AT-1) type-1 (Rattus norvegicus, UniProt P29089+P25095)                  IC50       > 10 µM
8  COc1ccc(Cc2cccc3c2CC(C(=O)O)N(C(=O)N(c2ccccc2)c2ccccc2)C3)cc1 (centres undefined)  Angiotensin II receptor (AT-1) type-1 (Rattus norvegicus, UniProt P29089+P25095)                  IC50         10 µM
9  Cc1cccc2c1CC(C(=O)O)N(C(=O)C(c1ccccc1)c1ccccc1)C2 (centres undefined)  Angiotensin II receptor (AT-1) type-1 (Rattus norvegicus, UniProt P29089+P25095)                  IC50       > 10 µM

* * *

subject-of-test: Angiotensin II receptor (AT-1) type-1 (Rattus norvegicus, UniProt P29089+P25095)
Sequence (P29089 whole entry): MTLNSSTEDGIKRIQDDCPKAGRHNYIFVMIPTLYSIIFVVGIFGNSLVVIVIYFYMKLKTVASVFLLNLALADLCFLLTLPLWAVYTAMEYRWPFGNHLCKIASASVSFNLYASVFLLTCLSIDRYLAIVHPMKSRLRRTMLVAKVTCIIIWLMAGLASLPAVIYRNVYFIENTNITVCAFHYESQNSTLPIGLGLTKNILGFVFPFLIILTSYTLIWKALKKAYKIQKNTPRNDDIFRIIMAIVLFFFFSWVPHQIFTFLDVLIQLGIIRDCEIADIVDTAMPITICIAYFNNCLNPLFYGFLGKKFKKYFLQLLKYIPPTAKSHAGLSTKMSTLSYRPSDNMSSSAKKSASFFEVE
Sequence (P25095 whole entry): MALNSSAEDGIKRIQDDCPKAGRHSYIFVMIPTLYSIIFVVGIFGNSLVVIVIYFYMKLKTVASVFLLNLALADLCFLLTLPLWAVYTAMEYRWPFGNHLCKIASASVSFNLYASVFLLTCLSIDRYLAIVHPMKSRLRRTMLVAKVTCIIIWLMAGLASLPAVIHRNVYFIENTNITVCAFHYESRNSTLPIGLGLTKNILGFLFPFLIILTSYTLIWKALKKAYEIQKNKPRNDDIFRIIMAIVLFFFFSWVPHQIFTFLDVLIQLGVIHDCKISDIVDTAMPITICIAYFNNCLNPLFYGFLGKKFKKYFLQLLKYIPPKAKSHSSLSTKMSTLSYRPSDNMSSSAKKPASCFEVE
test-protocol: Binding affinity towards Angiotensin II receptor, type 1 in rat isolated adrenal cortical microsomes
Parameters: species or system Microsome
As shown below, each of these compounds has a reported IC50 value.
experimental-readout: IC50

> print(dat)
                                   compound  experimental.readout  assay.result
1  O=C(O)C1Cc2cc(Oc3ccccc3)ccc2CN1C(=O)C(c1ccccc1)c1ccccc1 (stereo not given)                  IC50       > 10 µM
2  O=C(O)C1Cc2c(Cc3ccccc3)cccc2CN1C(=O)C(c1ccccc1)c1ccccc1 (stereo in doubt; 23)                  IC50          4 µM
3  COC(=O)C1Cc2c(C)cccc2CN1C(=O)C(c1ccccc1)c1ccccc1 (stereo not given)                  IC50       > 10 µM
4  COC(=O)C1Cc2c(cccc2-c2ccccc2)CN1C(=O)C(c1ccccc1)c1ccccc1 (stereo not given)                  IC50       > 10 µM
5  COC(=O)C1Cc2c(Cc3ccccc3)cccc2CN1C(=O)C(c1ccccc1)c1ccccc1 (stereo not given)                  IC50       > 10 µM

* * *

subject-of-test: UniProt:P35351
test-protocol: Binding affinity towards Angiotensin II receptor, type 2 in rat isolated adrenal medullary microsomes
Set-up: species or system Adrenal medulla, Microsome
Classify: y when IC50 is strictly less than 100 nM; n when IC50 is not.

> print(dat)
                                    molecule  answer.label
 1  COc1ccc(Cc2cccc3c2CC(C(=O)O)N(C(=O)N(c2ccccc2)c2ccccc2)C3)cc1 (configuration not stated)             n
 2  COC(=O)C1Cc2c(Cc3ccccc3)cccc2CN1C(=O)C(c1ccccc1)c1ccccc1 (configuration not stated)             n
 3  COc1ccc(-c2cccc3c2CC(C(=O)O)N(C(=O)C(c2ccccc2)c2ccccc2)C3)cc1C (configuration not stated)             y
 4  O=C(O)C1Cc2c(cccc2-c2ccccc2)CN1C(=O)C(c1ccccc1)c1ccccc1 (configuration not stated)             y
 5  CCCCCc1cccc2c1CC(C(=O)O)N(C(=O)C(c1ccccc1)c1ccccc1)C2 (configuration not stated)             y
 6  O=C(O)C1Cc2cc(-c3ccccc3)ccc2CN1C(=O)C(c1ccccc1)c1ccccc1 (configuration not stated)             y
 7  COc1ccc(Cc2cccc3c2CC(C(=O)O)N(C(=O)C(c2ccccc2)c2ccccc2)C3)cc1 (configuration not stated)             y
 8  O=C(O)C1Cc2c(Cc3ccccc3)cccc2CN1C(=O)C(c1ccccc1)c1ccccc1 (stereo in doubt; 22)             y
 9  O=C(O)C1Cc2ccccc2CN1C(=O)C(c1ccccc1)c1ccccc1 (configuration not stated)             n
10  COc1ccc(Cc2cccc3c2CC(C(=O)O)N(C(=O)N(C)c2ccccc2)C3)cc1 (configuration not stated)             n
11  O=C(O)C1Cc2cc(Oc3ccccc3)ccc2CN1C(=O)C(c1ccccc1)c1ccccc1 (configuration not stated)             y
12  COc1ccc(-c2cccc3c2CC(C(=O)O)N(C(=O)C(c2ccccc2)c2ccccc2)C3)cc1 (configuration not stated)             y
13  COC(=O)C1Cc2c(Cc3ccc(OC)cc3)cccc2CN1C(=O)C(c1ccccc1)c1ccccc1 (configuration not stated)             n
14  Cc1cccc2c1CC(C(=O)O)N(C(=O)C(c1ccccc1)c1ccccc1)C2 (configuration not stated)             n
15  CN(C(=O)N1Cc2ccc(Oc3ccccc3)cc2CC1C(=O)O)c1ccccc1 (configuration not stated)             n
16  O=C(O)C1Cc2cc(O)ccc2CN1C(=O)C(c1ccccc1)c1ccccc1 (configuration not stated)             n
17  O=C(O)C1Cc2c(Cc3ccccc3)cccc2CN1C(=O)C(c1ccccc1)c1ccccc1 (stereo in doubt; 21)             y
18  O=C(O)C1Cc2c(Cc3ccccc3)cccc2CN1C(=O)C(c1ccccc1)c1ccccc1 (stereo in doubt; 23)             y
19  COC(=O)C1Cc2c(cccc2-c2ccccc2)CN1C(=O)C(c1ccccc1)c1ccccc1 (configuration not stated)             n
20  COC(=O)C1Cc2c(cccc2-c2ccc(OC)cc2)CN1C(=O)C(c1ccccc1)c1ccccc1 (configuration not stated)             n
21  COC(=O)C1Cc2c(C)cccc2CN1C(=O)C(c1ccccc1)c1ccccc1 (configuration not stated)             n
